Hello, the source for this data is patent US20250051327A1, in case you need it.

# TESTED_ON: Recombinant human MALT-1 (amino acids 340-824) (Homo sapiens (Human), UniProt Q9UDY8)
# Sequence (Q9UDY8 340-824): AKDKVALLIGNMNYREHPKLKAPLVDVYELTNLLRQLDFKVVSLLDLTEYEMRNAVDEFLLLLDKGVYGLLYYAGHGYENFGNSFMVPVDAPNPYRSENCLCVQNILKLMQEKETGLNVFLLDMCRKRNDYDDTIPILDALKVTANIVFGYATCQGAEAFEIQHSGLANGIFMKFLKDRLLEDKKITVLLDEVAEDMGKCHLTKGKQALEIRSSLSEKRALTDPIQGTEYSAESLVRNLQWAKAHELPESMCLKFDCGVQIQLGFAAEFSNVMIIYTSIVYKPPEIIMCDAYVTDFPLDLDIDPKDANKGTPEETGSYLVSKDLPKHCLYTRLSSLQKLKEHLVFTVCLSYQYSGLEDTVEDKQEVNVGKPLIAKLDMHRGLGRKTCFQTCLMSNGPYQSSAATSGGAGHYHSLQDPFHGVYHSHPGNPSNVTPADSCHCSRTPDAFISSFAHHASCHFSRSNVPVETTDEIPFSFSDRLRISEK
# PROCEDURE_SUMMARY: MALT-1 inhibition assay (fluorogenic substrate Ac-LRSR-Rh110-DP)
# ASSAY_CONTEXT: recombinant human MALT-1, substrate Ac-LRSR-Rh110-DP
Structures can show the parent of a compound that is named as a salt.
Consider the following compounds and their measured pIC50 readings.
Schema: pIC50 number; meaning minus log10 of the concentration expressed in molar units.

These solved cases illustrate the format of a correct answer.
[
  {
    "COMPOUND": "CO[C@@H](C)c1c(Nc2ccc([C@H](N(C)C(=O)[C@H]3CC[S@@](=N)(=O)CC3)C(F)(F)F)cc2)cnn2cc(Cl)nc12 (relative stereo)",
    "TESTED_ON": "Recombinant human MALT-1 (amino acids 340-824) (Homo sapiens (Human), UniProt Q9UDY8)",
    "pIC50": 7.30
  },
  {
    "COMPOUND": "CCC(O)C(=O)N(C)[C@@H](c1ccc(N2CCCc3c2cnc2cc(Cl)nn32)cc1)C(F)(F)F (stereo partly drawn)",
    "TESTED_ON": "Recombinant human MALT-1 (amino acids 340-824) (Homo sapiens (Human), UniProt Q9UDY8)",
    "pIC50": 6.84
  },
  {
    "COMPOUND": "CN(C(=O)[C@@H]1CCN(C(=O)C2(O)CC2)C1)[C@@H](c1ccc(N2CCCc3c2cnc2cc(Cl)nn32)cc1)C(F)(F)F",
    "TESTED_ON": "Recombinant human MALT-1 (amino acids 340-824) (Homo sapiens (Human), UniProt Q9UDY8)",
    "pIC50": 7.27
  },
  {
    "COMPOUND": "CN(C(=O)C1COC1)[C@@H](c1ccc(N2CCCc3c2cnc2cc(Cl)nn32)cc1)C(F)(F)F",
    "TESTED_ON": "Recombinant human MALT-1 (amino acids 340-824) (Homo sapiens (Human), UniProt Q9UDY8)",
    "pIC50": 7.05
  }
]

Give its pIC50 value. Item: "CN(C(=O)C1CCS(=O)(=O)CC1)[C@@H](c1ccc(N2CCC(C)(C)c3c2cnc2cc(Cl)nn32)cc1)C(F)(F)F" 7.42

Give its pIC50 value. Item: CNCC(=O)N1CC[C@@H](C(=O)N(C)[C@@H](c2ccc(N3CCCc4c3cnc3cc(Cl)nn43)cc2)C(F)(F)F)C1 (relative stereo) [CPD0075881, hydrochloride] 7.17
